Values were extracted from patent US20230357447A1.

Target or system: T1, anti-CD28 scFv (VH-linker 1-VL) (biotinylated (site not stated))
T1 construct: Captured as biotinylated scFv on neutravidin coated plates in the phage ELISA
T1 sequence (scFv, as listed by the source): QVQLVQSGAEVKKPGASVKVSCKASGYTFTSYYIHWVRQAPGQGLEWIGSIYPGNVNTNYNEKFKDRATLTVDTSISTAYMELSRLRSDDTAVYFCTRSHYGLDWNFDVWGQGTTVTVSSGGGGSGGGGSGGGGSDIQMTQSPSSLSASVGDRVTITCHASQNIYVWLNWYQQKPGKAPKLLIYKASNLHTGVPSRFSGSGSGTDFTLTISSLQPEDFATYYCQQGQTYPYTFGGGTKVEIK
Assay name: phage ELISA; biotinylated scFv on neutravidin plate; anti-M13-HRP;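 also: crude clonal phage supernatant added to wells pre-incubated with soluble CD28 protein or only blocking buffer, then washed, bound phage read out with an HRP-linked anti-M13 antibody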
Where CD28 scFv signal equals or exceeds 2, the correct label is met; where it does not, the label is not met.

The examples below pair each entry with its known result.
1) MDWCPRDHWVDCYS (on phage (pIII fusion)) [Phage-275 clonal phage peptide] : not met
2) TFGCPTTMWNRCFA (on phage (pIII fusion)) [Phage-218 clonal phage peptide] : not met
3) MDWCPRSLWHVCFN (on phage (pIII fusion)) [Phage-258 clonal phage peptide] : met

Threshold query (CD28 scFv signal >= 2) on MDWCPKHLWTECFA (on phage (pIII fusion)) [Phage-242 clonal phage peptide]
met

How about MDWCPIALWDFCFA (on phage (pIII fusion)) [Phage-288 clonal phage peptide] ?
met

How about MDWCPTYLWHVCFS (on phage (pIII fusion)) [Phage-315 clonal phage peptide] ?
met

How about APWCQIISGLECLT (on phage (pIII fusion)) [Phage-230 clonal phage peptide] ?
not met

How about MDWCPRNMWHHCFD (on phage (pIII fusion)) [Phage-248 clonal phage peptide] ?
not met
